# experimental-target: von Hippel-Lindau disease tumor suppressor/Cyclin-dependent kinase 6 (Homo sapiens) (UniProt Q00534+P40337)
# Sequence (P40337 whole entry, looked up): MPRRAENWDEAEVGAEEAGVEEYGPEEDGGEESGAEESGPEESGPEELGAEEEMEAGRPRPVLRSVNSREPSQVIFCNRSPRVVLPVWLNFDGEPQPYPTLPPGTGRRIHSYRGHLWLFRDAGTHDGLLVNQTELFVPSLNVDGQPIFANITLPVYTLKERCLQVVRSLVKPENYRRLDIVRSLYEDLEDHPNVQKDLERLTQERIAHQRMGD
# Sequence (Q00534 whole entry, looked up): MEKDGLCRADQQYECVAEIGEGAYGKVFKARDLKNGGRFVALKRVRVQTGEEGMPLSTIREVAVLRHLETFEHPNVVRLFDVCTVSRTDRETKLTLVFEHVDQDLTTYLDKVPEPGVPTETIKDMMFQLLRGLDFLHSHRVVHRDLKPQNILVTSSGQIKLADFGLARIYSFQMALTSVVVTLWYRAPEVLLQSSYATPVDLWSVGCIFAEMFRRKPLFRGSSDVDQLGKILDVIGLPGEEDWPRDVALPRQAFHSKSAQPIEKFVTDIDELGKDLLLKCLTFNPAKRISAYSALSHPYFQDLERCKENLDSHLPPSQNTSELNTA
# assay-summary: Induction of VHL-mediated CDK6 degradation in human U251 cells at 1 uM after 24 hrs by immunoblot analysis
# Assay type: cell-based
Active and inactive are the calls of the source. The calls are words filed in the database; no cut-off is given here.
readout-type: Activity

CC(=O)c1c(C)c2cnc(Nc3ccc(N4CCN(Cc5cn(CCOCCOCCOCCOCCNC(=O)CCC(=O)N[C@H](C(=O)N6C[C@H](O)C[C@H]6C(=O)NCc6ccc(-c7scnc7C)cc6)C(C)(C)C)nn5)CC4)cn3)nc2n(C2CCCC2)c1=O = inactive
CC(=O)c1c(C)c2cnc(Nc3ccc(N4CCN(Cc5cn(CCOCCOCCOCCNC(=O)CCC(=O)N[C@H](C(=O)N6C[C@H](O)C[C@H]6C(=O)NCc6ccc(-c7scnc7C)cc6)C(C)(C)C)nn5)CC4)cn3)nc2n(C2CCCC2)c1=O = inactive
CC(=O)c1c(C)c2cnc(Nc3ccc(N4CCN(Cc5cn(CCOCCNC(=O)CCC(=O)N[C@H](C(=O)N6C[C@H](O)C[C@H]6C(=O)NCc6ccc(-c7scnc7C)cc6)C(C)(C)C)nn5)CC4)cn3)nc2n(C2CCCC2)c1=O = inactive
CC(=O)c1c(C)c2cnc(Nc3ccc(N4CCN(Cc5cn(CCOCCOCCNC(=O)CCC(=O)N[C@H](C(=O)N6C[C@H](O)C[C@H]6C(=O)NCc6ccc(-c7scnc7C)cc6)C(C)(C)C)nn5)CC4)cn3)nc2n(C2CCCC2)c1=O = inactive

* * *

# experimental-target: Protein cereblon/Cyclin-dependent kinase 4 (Homo sapiens, UniProt P11802+Q96SW2)
# Sequence (P11802 whole entry): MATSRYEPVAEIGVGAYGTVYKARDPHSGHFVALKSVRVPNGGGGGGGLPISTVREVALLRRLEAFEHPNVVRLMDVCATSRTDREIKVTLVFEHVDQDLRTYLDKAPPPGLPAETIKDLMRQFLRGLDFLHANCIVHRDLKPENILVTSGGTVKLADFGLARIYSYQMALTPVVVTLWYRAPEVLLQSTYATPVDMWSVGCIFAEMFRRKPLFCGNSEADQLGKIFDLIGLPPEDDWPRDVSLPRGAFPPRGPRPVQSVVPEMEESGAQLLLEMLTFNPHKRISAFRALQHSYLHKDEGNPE
# Sequence (Q96SW2 whole entry): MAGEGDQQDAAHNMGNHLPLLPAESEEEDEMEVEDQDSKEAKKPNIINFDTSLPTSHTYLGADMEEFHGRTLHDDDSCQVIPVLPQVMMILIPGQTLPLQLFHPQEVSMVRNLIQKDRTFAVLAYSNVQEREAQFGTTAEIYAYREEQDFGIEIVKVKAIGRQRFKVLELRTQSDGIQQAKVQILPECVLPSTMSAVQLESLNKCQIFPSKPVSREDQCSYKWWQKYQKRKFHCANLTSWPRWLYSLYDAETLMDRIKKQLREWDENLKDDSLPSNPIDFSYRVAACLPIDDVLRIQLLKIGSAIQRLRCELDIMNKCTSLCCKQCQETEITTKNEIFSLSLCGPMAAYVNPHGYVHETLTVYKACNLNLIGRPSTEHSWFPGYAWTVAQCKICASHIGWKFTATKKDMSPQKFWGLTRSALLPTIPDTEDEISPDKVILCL
# assay-summary: Induction of CRBN-mediated CDK4 degradation in human U251 cells after 24 hrs by immunoblot analysis
# Format: cell-based
readout-type: DC50

CC(=O)c1c(C)c2cnc(Nc3ccc(N4CCN(CC(=O)NCCOCCNc5cccc6c5C(=O)N(C5CCC(=O)NC5=O)C6=O)CC4)cn3)nc2n(C2CCCC2)c1=O (stereo not drawn) = > 100 nM
Cc1nc2c(F)cc(-c3nc(Nc4ccc(CN5CCN(Cc6cn(CCOCCOCCNc7cccc8c7C(=O)N(C7CCC(=O)NC7=O)C8=O)nn6)CC5)cn4)ncc3F)cc2n1C(C)C (stereo not drawn) = > 500 nM
CC(=O)c1c(C)c2cnc(Nc3ccc(N4CCN(Cc5cn(CCOCCNc6cccc7c6C(=O)N(C6CCC(=O)NC6=O)C7=O)nn5)CC4)cn3)nc2n(C2CCCC2)c1=O (stereo not drawn) = 150 to 180 nM

* * *

# Tested on: Daoy
# assay-summary: Induction of cIAP-mediated CDK6 degradation in human DAOY cells at 1 uM after 24 hrs by immunoblot analysis
# Format: cell-based
Active and inactive are the calls of the source. The rule behind the calls is not given here.
readout-type: Activity

CC(=O)c1c(C)c2cnc(Nc3ccc(N4CCN(Cc5cn(CCOCCOCCOCCOCCNC(=O)[C@H](CC(C)C)NC(=O)[C@@H](O)[C@H](N)Cc6ccccc6)nn5)CC4)cn3)nc2n(C2CCCC2)c1=O = inactive
CC(=O)c1c(C)c2cnc(Nc3ccc(N4CCN(Cc5cn(CCOCCOCCNC(=O)[C@H](CC(C)C)NC(=O)[C@@H](O)[C@H](N)Cc6ccccc6)nn5)CC4)cn3)nc2n(C2CCCC2)c1=O = inactive
CC(=O)c1c(C)c2cnc(Nc3ccc(N4CCN(Cc5cn(CCOCCOCCOCCNC(=O)[C@H](CC(C)C)NC(=O)[C@@H](O)[C@H](N)Cc6ccccc6)nn5)CC4)cn3)nc2n(C2CCCC2)c1=O = inactive
CC(=O)c1c(C)c2cnc(Nc3ccc(N4CCN(Cc5cn(CCOCCNC(=O)[C@H](CC(C)C)NC(=O)[C@@H](O)[C@H](N)Cc6ccccc6)nn5)CC4)cn3)nc2n(C2CCCC2)c1=O = inactive
